Recorded Concentration @ t = 3 values for a group of molecules are listed next.
Assay: Solubility assay under CellSensor assay conditions (HPLC-UV)
Type: physicochemical
Conditions: nominal concentration 5 µM; 3 hours; assay buffer, 0.5% DMSO
Experimental: To align with the functional data, all compound samples and dilutions were prepared using the CellSensor® assay conditions that include: assay buffer, plates, sample volumes and the same timeframe. The assay incubation time was 7 hours. 0, 3 and 7 hour samples were analysed, in triplicate, in the final assay buffer (DMEM/Glutamax + NEAA + 20 mM Hepes pH7.4 + 0.01% BSA, final DMSO concentration 0.5%) at nominal compound concentrations of 5, 20 and 50 µM. […]
parameter: Concentration @ t = 3 (µM)

molecule: O=C(NCCO)c1cc(C(=O)NCCO)cc(C(=O)NCCO)c1 [LM22A-4]
unit.text: µM
numeric.readout: 7.8
--
molecule: CC(=O)NCCc1c[nH]c2ccc(O)cc12 [N-acetyl serotonin]
unit.text: µM
numeric.readout: 8.8
--
molecule: O=c1cc(-c2ccccc2)oc2c(O)c(O)ccc12 [7,8-dihydroxyflavone]
unit.text: µM
numeric.readout: 0.24
--
molecule: COC(=O)[C@H]1[C@H]2C[C@@H]3c4[nH]c5cc(OC)ccc5c4CCN3C[C@H]2C[C@@H](OC(=O)c2cc(OC)c(OC)c(OC)c2)[C@@H]1OC [Reserpine]
unit.text: µM
numeric.readout: 3.0
--
molecule: CN(C)CCC=C1c2ccccc2CCc2ccccc21 [Amitriptyline]
unit.text: µM
numeric.readout: 4.3

###

test: Solubility assay under CellSensor assay conditions (HPLC-UV); assay type: physicochemical; conditions: nominal concentration 50 µM; 7 hours; assay buffer, 0.5% DMSO
parameter: Concentration @ t = 7 (µM)

compound: COC(=O)[C@H]1[C@H]2C[C@@H]3c4[nH]c5cc(OC)ccc5c4CCN3C[C@H]2C[C@@H](OC(=O)c2cc(OC)c(OC)c(OC)c2)[C@@H]1OC
numeric.readout: 6.9
--
compound: CN(C)CCC=C1c2ccccc2CCc2ccccc21
numeric.readout: 27
--
compound: O=c1cc(-c2ccccc2)oc2c(O)c(O)ccc12 [7,8-dihydroxyflavone]
numeric.readout: 13
--
compound: O=C(NCCO)c1cc(C(=O)NCCO)cc(C(=O)NCCO)c1 [LM22A-4]
numeric.readout: 64
--
compound: CC(=O)NCCc1c[nH]c2ccc(O)cc12
numeric.readout: 49

###

Assay: Solubility assay under CellSensor assay conditions (HPLC-UV)
Assay type: physicochemical
Settings: nominal concentration 5 µM; 7 hours; assay buffer, 0.5% DMSO
Description: To align with the functional data, all compound samples and dilutions were prepared using the CellSensor® assay conditions that include: assay buffer, plates, sample volumes and the same timeframe. The assay incubation time was 7 hours. 0, 3 and 7 hour samples were analysed, in triplicate, in the final assay buffer (DMEM/Glutamax + NEAA + 20 mM Hepes pH7.4 + 0.01% BSA, final DMSO concentration 0.5%) at nominal compound concentrations of 5, 20 and 50 µM. […]
Mark each entry Yes if its Concentration @ t = 7 sits below 4 µM, and No for all others.

compound: COC(=O)[C@H]1[C@H]2C[C@@H]3c4[nH]c5cc(OC)ccc5c4CCN3C[C@H]2C[C@@H](OC(=O)c2cc(OC)c(OC)c(OC)c2)[C@@H]1OC
class.assignment: Yes
//
compound: O=c1cc(-c2ccccc2)oc2c(O)c(O)ccc12 [7,8-dihydroxyflavone]
class.assignment: Yes
//
compound: O=C(NCCO)c1cc(C(=O)NCCO)cc(C(=O)NCCO)c1 [LM22A-4]
class.assignment: No
//
compound: CC(=O)NCCc1c[nH]c2ccc(O)cc12
class.assignment: No
//
compound: CN(C)CCC=C1c2ccccc2CCc2ccccc21
class.assignment: Yes

###

assay: Solubility assay under CellSensor assay conditions (HPLC-UV); type: physicochemical; conditions: nominal concentration 20 µM; 3 hours; assay buffer, 0.5% DMSO
Recorded Concentration @ t = 3 values for a group of molecules are listed next.
parameter: Concentration @ t = 3 (µM)

molecule: O=C(NCCO)c1cc(C(=O)NCCO)cc(C(=O)NCCO)c1 [LM22A-4]
unit.text: µM
numeric.readout: 17

molecule: O=c1cc(-c2ccccc2)oc2c(O)c(O)ccc12 [7,8-dihydroxyflavone]
unit.text: µM
numeric.readout: 1.9

molecule: COC(=O)[C@H]1[C@H]2C[C@@H]3c4[nH]c5cc(OC)ccc5c4CCN3C[C@H]2C[C@@H](OC(=O)c2cc(OC)c(OC)c(OC)c2)[C@@H]1OC [Reserpine]
unit.text: µM
numeric.readout: 2.9

molecule: CC(=O)NCCc1c[nH]c2ccc(O)cc12 [N-acetyl serotonin]
unit.text: µM
numeric.readout: 14

molecule: CN(C)CCC=C1c2ccccc2CCc2ccccc21 [Amitriptyline]
unit.text: µM
numeric.readout: 7.1

###

test: Solubility assay under CellSensor assay conditions (HPLC-UV); format: physicochemical; details: nominal concentration 20 µM; 7 hours; assay buffer, 0.5% DMSO
Recorded Concentration @ t = 7 values for a group of compounds are listed next.

compound: O=C(NCCO)c1cc(C(=O)NCCO)cc(C(=O)NCCO)c1 [LM22A-4]
Concentration @ t = 7: 20 µM
//
compound: COC(=O)[C@H]1[C@H]2C[C@@H]3c4[nH]c5cc(OC)ccc5c4CCN3C[C@H]2C[C@@H](OC(=O)c2cc(OC)c(OC)c(OC)c2)[C@@H]1OC [Reserpine]
Concentration @ t = 7: 4.5 µM
//
compound: CC(=O)NCCc1c[nH]c2ccc(O)cc12 [N-acetyl serotonin]
Concentration @ t = 7: 17 µM
//
compound: O=c1cc(-c2ccccc2)oc2c(O)c(O)ccc12 [7,8-dihydroxyflavone]
Concentration @ t = 7: 5.2 µM
//
compound: CN(C)CCC=C1c2ccccc2CCc2ccccc21 [Amitriptyline]
Concentration @ t = 7: 5.9 µM
